Target desc: human SGLT1 (Homo sapiens (Human), UniProt P13866)
Sequence (P13866 whole entry): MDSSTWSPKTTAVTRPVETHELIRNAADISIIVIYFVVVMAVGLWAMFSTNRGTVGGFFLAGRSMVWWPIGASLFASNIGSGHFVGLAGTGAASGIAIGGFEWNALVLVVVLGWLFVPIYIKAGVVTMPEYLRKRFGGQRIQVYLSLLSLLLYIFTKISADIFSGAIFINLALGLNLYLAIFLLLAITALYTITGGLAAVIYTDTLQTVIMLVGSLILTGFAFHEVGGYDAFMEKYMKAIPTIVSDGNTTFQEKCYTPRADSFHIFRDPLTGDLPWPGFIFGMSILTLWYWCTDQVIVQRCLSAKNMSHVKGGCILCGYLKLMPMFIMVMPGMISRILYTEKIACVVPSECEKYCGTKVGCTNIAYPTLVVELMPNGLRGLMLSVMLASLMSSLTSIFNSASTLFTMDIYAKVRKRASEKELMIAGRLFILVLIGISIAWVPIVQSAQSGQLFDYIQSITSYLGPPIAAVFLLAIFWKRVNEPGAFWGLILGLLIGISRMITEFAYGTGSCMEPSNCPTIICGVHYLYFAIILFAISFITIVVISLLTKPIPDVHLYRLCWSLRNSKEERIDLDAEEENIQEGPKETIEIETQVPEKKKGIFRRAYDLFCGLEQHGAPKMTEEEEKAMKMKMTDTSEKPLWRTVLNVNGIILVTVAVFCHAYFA
Assay overview: SGLT1 inhibitory activity: 14C-AMG uptake into CHO-K1 cell line stably expressing human SGLT1
Format: cell-based
Assay conditions: 14C-AMG uptake, CHO-K1 cells expressing human SGLT1
pIC50: −log10 of the molar value.
Measure: pIC50

Some solved entries appear below for comparison.
Compound | pIC50
CCCc1cccc(-c2cc(NC(=O)[C@@H]3CNC(=O)C3)nn2C2CCCCCC2)c1 [Example 69] | 7.74
CCCc1cccc(-c2cc(NC(=O)[C@H]3CNC(=O)C3)nn2-c2ccc(F)cc2)c1 [Example 34] | 8.17
O=C1C[C@@H](C(=O)Nc2cc(-c3cccc(Cl)c3)n(-c3ccccc3)n2)CN1 [Example 38] | 6.89
CCC(F)(F)c1cccc(-c2cc(NC(=O)[C@H]3CNC(=O)C3)nn2-c2cccc(OC)c2)c1 [Example 164] | 8.59
CCCc1cccc(-c2cc(NC(=O)[C@H]3CNC(=O)C3)nn2CC2CCCCC2)c1 [Example 111] | 7.34

P. C[C@H]1C(=O)NC[C@@H]1C(=O)Nc1cc(-c2cccc(C(F)(F)F)c2)n(-c2ccccc2F)n1 [Example 229]
Q. CCCc1cccc(-c2cc(NC(=O)C3CNC(=O)C3)nn2C(C)C)c1 (racemic) [Example 17]
// pick min by pIC50: P , Q Record your answer as the label of the chosen record.
Q
(Q: 7.18, P: 8.51)

###

Target desc: human SGLT1 (Homo sapiens (Human))
Assay overview: SGLT1 inhibitory activity: 14C-AMG uptake into CHO-K1 cell line stably expressing human SGLT1
Type: cell-based
Assay conditions: CHO-K1, at 0.1 uM
Measure: inhibition at 0.1 µM (%)

Structure smiles | inhibition at 0.1 µM / %
C[C@@H]1C[C@@H](n2nc(NC(=O)[C@H]3CNC(=O)C3)cc2-c2cccc(OC(F)(F)F)c2)C[C@H](C)O1 | 26

A. C[C@@H]1C[C@H](n2nc(NC(=O)[C@H]3CNC(=O)[C@@H]3C)cc2-c2cccc(OC(F)(F)F)c2)C[C@H](C)O1
B. CS(=O)(=O)c1cccc(-n2nc(NC(=O)[C@@H]3CNC(=O)C3)cc2-c2cccc(COCC(F)(F)F)c2)c1
// pick min by inhibition at 0.1 µM: A , B Record your answer as the label of the chosen record.
A

###

Target desc: human SGLT1 (Homo sapiens (Human))
Assay overview: SGLT1 inhibitory activity: 14C-AMG uptake into CHO-K1 cell line stably expressing human SGLT1
Assay type: cell-based
Assay conditions: 14C-AMG uptake, CHO-K1 cells stably expressing human SGLT1
Measure: IC50 (nM)

Compound | Quantitative result
CCCCc1cccc(-c2cc(NC(=O)[C@H]3CNC(=O)N3)nn2-c2ccccc2)c1 [Example 245] | 19
O=C1C[C@H](C(=O)Nc2cc(-c3cc(F)cc(COCC(F)(F)F)c3)n(-c3ccccc3)n2)CN1 [Example 488] | 18
O=C1C[C@H](C(=O)Nc2cc(-c3cc(F)cc(COCC(F)(F)F)c3)n(-c3cccc(F)c3)n2)CN1 [Example 520] | 18

A. O=C1C[C@H](C(=O)Nc2cc(-c3cc(F)cc(COCC(F)(F)F)c3)n(-c3ccc(F)cc3)n2)CN1 [Example 248]
B. COc1cc(-n2nc(NC(=O)[C@@H]3CNC(=O)C3)cc2-c2cccc(COCC(F)(F)F)c2)ccc1F [Example 416]
C. O=C1NC[C@H](C(=O)Nc2cc(-c3cccc(OC(F)(F)F)c3)n(-c3ccccc3)n2)N1 [Example 267]
D. COC(C)(C)c1cccc(-c2cc(NC(=O)[C@@H]3CNC(=O)N3)nn2-c2ccccc2)c1 [Example 270]
Order field: IC50 | Direction: descending (largest first) A complete answer lists every label in the requested sequence.
C, D, A, B
